protocolNotes: RAM signaling pathway blockade in yeast – S. cerevisiae, Pdr1DBD-CYC8 efflux-inhibited sensitized strain, primary screen (AID 1298);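 further: 0% = DMSO untreated cells without growth and 100% = 10 µM 1-NA-PP1 full growth; higher means more yeast growth rescued from 5-FOA killing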
assaySetup: S. cerevisiae cbk1-as DSE1-URA3 strain, 5-FOA growth OD615, 2 d; at 50 µM; hits give high values

>  <molecule>
Cc1cc(C)nc(NS(=O)(=O)c2ccc(NC(=O)c3ccc4c(c3)OCO4)cc2)n1

>  <RAM network inhibition / %>
-0.21

$$$$
>  <molecule>
Cc1ccc(Cl)cc1N1CCN(C(=O)C2CCN(c3nnc(-n4cccc4)s3)CC2)CC1

>  <RAM network inhibition / %>
8.04

$$$$
>  <molecule>
O=C(CC(=O)N1CCN(c2ccccn2)CC1)Nc1ccc2nc3n(c(=O)c2c1)CCCCC3

>  <RAM network inhibition / %>
2.7

$$$$
>  <molecule>
O=C1Nc2ccc(S(=O)(=O)N3CCCC3C(=O)O)c3cccc1c23 (stereo not given)

>  <RAM network inhibition / %>
0.21

$$$$
>  <molecule>
O=C(NCc1cn2ccsc2n1)c1cccs1

>  <RAM network inhibition / %>
7.64

$$$$

// provenance: PubChem BioAssay
